# assay-text: in vitro
# run-conditions: human, A549 cells
measurement-kind: CC50 at 3 h (µg/mL)
Give the value in µg/mL but do not write µg/mL after it.

input: State the recorded CC50 at 3 h for this entry: CCCCCCCCCCCCCCCC(=O)N[C@@H](CCCNC(=N)N)C(=O)N[C@@H](CCCNC(=N)N)C(=O)N[C@@H](CCCNC(=N)N)C(=O)N[C@@H](CCCNC(=N)N)C(=O)N[C@@H](CCCNC(=N)N)C(=O)N[C@@H](CCCNC(=N)N)C(=O)N[C@@H](CCCNC(=N)N)C(=O)N[C@@H](CCCNC(=N)N)C(=O)N[C@@H](CCCNC(=N)N)C(=O)N[C@@H](CCCNC(=N)N)C(=O)N[C@@H](CCCNC(=N)N)C(=O)N[C@@H](CCCNC(=N)N)C(=O)O [C16-(Rx12)]
output: 30

----------
Measured % Haemolytic Activity at 3 h, listed per entry for reference.
# System: human red blood cells (hRBC)
# assay-text: Haemolysis of human red blood cells
# run-conditions: lipid alone at 200 μg/ml
Reply with just the number (in %).

{"compound": "CCCCCCCCCC(=O)O [Decanoic (C10), Decanoic]", "numeric-readout": 10}
{"compound": "CCCCCC(=O)O [Hexanoic (C6), Hexanoic]", "numeric-readout": 40}
{"compound": "CCCCCCCCCCCC(=O)O [Dodecanoic (C12), Dodecanoic]", "numeric-readout": 20}
{"compound": "CCCCCCCCCCCCCC(=O)O [Tetradecanoic (C14), Tetradecanoic]", "numeric-readout": 20}

Then this compound:
input: # input compound: CCCC(=O)O [Butanoic (C4), Butanoic] ; wanted: its % Haemolytic Activity at 3 h
output: 30

----------
# Test system: A549 cells
# run-conditions: lipid alone at 200 μg/ml
measurement-kind: % A549 Cell Death at 3 h (%)
I only need the number, in %, no unit after it.

Below, each entry is followed by its recorded % A549 Cell Death at 3 h result.
{"compound": "CCCCCC(=O)O [Hexanoic (C6), Hexanoic]", "unit": "%", "numeric-readout": 0}
{"compound": "CCCCCCCC(=O)O [Octanoic (C8), Octanoic]", "unit": "%", "numeric-readout": 5}
{"compound": "CCCCCCCCCCCCCC(=O)O [Tetradecanoic (C14), Tetradecanoic]", "unit": "%", "numeric-readout": 0}
{"compound": "CCCCCCCCCC(=O)O [Decanoic (C10), Decanoic]", "unit": "%", "numeric-readout": 25}
{"compound": "CCCC(=O)O [Butanoic (C4), Butanoic]", "unit": "%", "numeric-readout": 0}
{"compound": "CCCCCCCCCCCCCCCC(=O)O [Palmitic (C16), Palmitic]", "unit": "%", "numeric-readout": 10}

input: Need % A549 Cell Death at 3 h, item CCCCCCCCCCCC(=O)O [Dodecanoic (C12), Dodecanoic]
output: 20

----------
# Test system: A. fumigatus (AM2002/066 and NPCF2939)
# assay-text: Antifungal activity (CLSI M38-A2 micro-broth dilution) and MFC
# Type: cell-based
# run-conditions: lipid alone at 200 μg/ml, 48 h
Quick rule for you: % Growth Inhibition of A. fumigatus at 48 h under 40% gets t, anything else gets f.

input: Dear colleague, could you confirm whether % Growth Inhibition of A. fumigatus at 48 h of CCCCCCCCCCCC(=O)O [Dodecanoic (C12), Dodecanoic] falls below 40%? Thanks.
output: f

input: Record CCCCCC(=O)O [Hexanoic (C6), Hexanoic] : is its % Growth Inhibition of A. fumigatus at 48 h strictly below 40%?
output: f

input: Check if % Growth Inhibition of A. fumigatus at 48 h falls below 40% for CCCCCCCCCCCCCCCC(=O)O [Palmitic (C16), Palmitic] .
output: t

input: I wonder whether CCCC(=O)O [Butanoic (C4), Butanoic] has % Growth Inhibition of A. fumigatus at 48 h below 40%. Can you tell?
output: t

input: Take the molecule CCCCCCCC(=O)O [Octanoic (C8), Octanoic] and say whether its % Growth Inhibition of A. fumigatus at 48 h is less than 40%.
output: f

input: Quick check: % Growth Inhibition of A. fumigatus at 48 h of CCCCCCCCCC(=O)O [Decanoic (C10), Decanoic] under 40%?
output: t

input: Hello, I'm reviewing records and need to know if % Growth Inhibition of A. fumigatus at 48 h of CCCCCCCCCCCCCC(=O)O [Tetradecanoic (C14), Tetradecanoic] is below 40%. Could you check?
output: t
